Assayed Target: ACVR2A (Homo sapiens)
Sequence (P27037 20-513): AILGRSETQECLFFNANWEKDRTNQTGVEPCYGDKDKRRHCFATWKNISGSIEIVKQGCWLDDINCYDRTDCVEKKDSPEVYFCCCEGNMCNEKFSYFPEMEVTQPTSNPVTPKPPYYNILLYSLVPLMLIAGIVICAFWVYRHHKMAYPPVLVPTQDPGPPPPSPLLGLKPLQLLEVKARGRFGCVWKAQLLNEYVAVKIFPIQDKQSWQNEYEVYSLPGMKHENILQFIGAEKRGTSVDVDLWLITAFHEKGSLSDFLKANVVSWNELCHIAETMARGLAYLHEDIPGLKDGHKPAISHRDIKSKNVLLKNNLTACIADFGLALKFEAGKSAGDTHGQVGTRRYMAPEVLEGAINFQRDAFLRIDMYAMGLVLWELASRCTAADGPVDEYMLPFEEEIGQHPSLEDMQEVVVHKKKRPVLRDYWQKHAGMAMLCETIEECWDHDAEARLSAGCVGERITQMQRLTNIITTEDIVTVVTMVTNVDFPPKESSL
pIC50: −log10 of the molar value.
# reported pIC50; entries follow
Recorded Metric: pIC50

{"columns": ["Line Notation", "Assayed Target", "Recorded Metric", "Reported Value"],
 "data": [
  ["c1ccc2c(-c3cnn4cc(-c5ccc(N6CCNCC6)cc5)cnc34)ccnc2c1", "ACVR2A (Homo sapiens)", "pIC50", 7.84],
  ["c1ccc2c(-c3cnn4cc(N5CCN(C6CCNCC6)CC5)cnc34)ccnc2c1", "ACVR2A (Homo sapiens)", "pIC50", 6.07]
]}

----------
Assayed Target: ALK6 (Homo sapiens, UniProt O00238)
Construct: purchased Life technology (Fredrick, Md.) and/or CARNA BIOSCIENCES Inc. (Kobe, Japan)
Sequence (O00238 14-502): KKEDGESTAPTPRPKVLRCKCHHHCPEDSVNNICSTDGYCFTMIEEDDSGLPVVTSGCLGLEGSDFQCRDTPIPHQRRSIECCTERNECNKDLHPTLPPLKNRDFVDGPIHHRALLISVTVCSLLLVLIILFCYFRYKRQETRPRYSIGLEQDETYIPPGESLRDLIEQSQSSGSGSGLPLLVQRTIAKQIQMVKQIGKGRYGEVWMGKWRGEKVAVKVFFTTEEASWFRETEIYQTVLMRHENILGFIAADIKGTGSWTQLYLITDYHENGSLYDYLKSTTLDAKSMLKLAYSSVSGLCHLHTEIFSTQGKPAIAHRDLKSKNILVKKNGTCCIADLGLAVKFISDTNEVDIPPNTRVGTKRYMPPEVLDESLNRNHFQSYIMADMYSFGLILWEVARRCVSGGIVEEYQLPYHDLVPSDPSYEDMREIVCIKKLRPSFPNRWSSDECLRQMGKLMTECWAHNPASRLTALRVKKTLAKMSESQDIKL
Protocol Details: TR-FRET enzymatic assay, ALK6 kinase, 1536-well
Type: biochemical
Protocol Conditions: 10 nM ALK, Ulight topo II substrate 50 nM, ATP 10 uM (Table 1)

{"columns": ["Line Notation", "IC50"],
 "data": [
  ["COc1cc2c(-c3cnn4cc(N5CCC(N6CCN(C)CC6)CC5)cnc34)ccnc2cc1F", "10300 nM"],
  ["Cc1cc(-c2cnn3cc(N4CCC(N5CCN(C)CC5)CC4)cnc23)c2ccccc2n1", "2400 nM"],
  ["Cc1cc(-c2cnn3cc(N4CCC(N5CCNCC5)CC4)cnc23)c2ccccc2n1", "4060 nM"],
  ["Cc1cc(-c2cnn3cc(N4CCC(N5CCOCC5)CC4)cnc23)c2ccccc2n1", "2980 nM"]
]}
